Target: hLYN (Homo sapiens, UniProt P07948)
Sequence (P07948 whole entry): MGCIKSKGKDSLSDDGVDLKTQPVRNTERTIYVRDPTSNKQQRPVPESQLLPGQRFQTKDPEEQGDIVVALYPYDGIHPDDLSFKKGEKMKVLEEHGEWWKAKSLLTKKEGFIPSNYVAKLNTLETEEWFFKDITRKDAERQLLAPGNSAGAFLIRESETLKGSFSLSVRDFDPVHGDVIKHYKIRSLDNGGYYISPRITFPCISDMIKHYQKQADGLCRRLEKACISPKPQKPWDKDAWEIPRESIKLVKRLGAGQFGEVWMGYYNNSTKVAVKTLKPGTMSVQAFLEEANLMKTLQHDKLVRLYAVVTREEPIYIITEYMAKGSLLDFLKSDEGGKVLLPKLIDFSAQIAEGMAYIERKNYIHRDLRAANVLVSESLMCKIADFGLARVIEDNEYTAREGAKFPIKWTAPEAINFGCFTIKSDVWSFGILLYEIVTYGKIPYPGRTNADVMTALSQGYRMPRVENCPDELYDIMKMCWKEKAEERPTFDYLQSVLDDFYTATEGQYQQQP
attribute-measured: IC50

Exam item: // IC50 lookup, key: Cc1cn(CCN2CCN(c3ccccc3-c3cc(C#N)cc(C(=O)NCCCN4CCCC4)c3)CC2)c2ccccc12
Marked response: > 20 µM

----------
Target: hMARK4 (Homo sapiens)
Sequence (Q96L34 1-752): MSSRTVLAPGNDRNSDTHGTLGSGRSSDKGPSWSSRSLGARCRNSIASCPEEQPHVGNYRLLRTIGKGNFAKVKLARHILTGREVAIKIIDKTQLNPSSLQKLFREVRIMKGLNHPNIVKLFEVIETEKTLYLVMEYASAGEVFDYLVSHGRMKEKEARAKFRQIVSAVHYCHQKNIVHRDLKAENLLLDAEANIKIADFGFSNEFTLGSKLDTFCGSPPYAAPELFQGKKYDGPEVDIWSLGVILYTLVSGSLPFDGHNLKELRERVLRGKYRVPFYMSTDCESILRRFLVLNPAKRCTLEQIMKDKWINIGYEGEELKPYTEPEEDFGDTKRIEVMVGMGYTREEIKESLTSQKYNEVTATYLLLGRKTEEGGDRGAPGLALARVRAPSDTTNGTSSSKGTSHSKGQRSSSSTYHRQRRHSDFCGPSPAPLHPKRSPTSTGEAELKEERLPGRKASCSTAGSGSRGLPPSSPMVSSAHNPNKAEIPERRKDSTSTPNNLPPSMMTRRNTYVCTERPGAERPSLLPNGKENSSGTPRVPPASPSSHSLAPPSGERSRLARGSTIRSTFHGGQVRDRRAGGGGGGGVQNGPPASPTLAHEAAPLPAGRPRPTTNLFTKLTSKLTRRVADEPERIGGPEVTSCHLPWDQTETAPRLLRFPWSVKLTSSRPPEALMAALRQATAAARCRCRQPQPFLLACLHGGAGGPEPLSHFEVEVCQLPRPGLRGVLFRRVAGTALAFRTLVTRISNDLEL
attribute-measured: IC50

Exam item: // IC50 lookup, key: Cc1cn(CCN2CCN(c3ccccc3-c3cc(C#N)cc(C(=O)NCCCN4CCCC4)c3)CC2)c2ccccc12
Marked response: > 20 µM

----------
Target protein (sequence): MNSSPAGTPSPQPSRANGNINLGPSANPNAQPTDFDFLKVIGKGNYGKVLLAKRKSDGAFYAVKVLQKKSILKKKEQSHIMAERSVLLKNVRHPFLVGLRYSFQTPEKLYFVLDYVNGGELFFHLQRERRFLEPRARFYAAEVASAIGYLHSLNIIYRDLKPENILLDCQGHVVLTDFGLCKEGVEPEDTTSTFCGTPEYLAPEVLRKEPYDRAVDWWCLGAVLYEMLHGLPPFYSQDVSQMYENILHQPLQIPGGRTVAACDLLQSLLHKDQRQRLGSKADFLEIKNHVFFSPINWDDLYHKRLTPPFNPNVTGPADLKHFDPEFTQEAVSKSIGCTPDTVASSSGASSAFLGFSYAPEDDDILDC
attribute-measured: IC50

Exam item: // IC50 lookup, key: Cc1cn(CCN2CCN(c3ccccc3-c3cc(C#N)cc(C(=O)NCCCN4CCCC4)c3)CC2)c2ccccc12
Marked response: > 20 µM

----------
Biological target: hCAMKK2 (Homo sapiens, UniProt Q96RR4)
Sequence (Q96RR4 whole entry): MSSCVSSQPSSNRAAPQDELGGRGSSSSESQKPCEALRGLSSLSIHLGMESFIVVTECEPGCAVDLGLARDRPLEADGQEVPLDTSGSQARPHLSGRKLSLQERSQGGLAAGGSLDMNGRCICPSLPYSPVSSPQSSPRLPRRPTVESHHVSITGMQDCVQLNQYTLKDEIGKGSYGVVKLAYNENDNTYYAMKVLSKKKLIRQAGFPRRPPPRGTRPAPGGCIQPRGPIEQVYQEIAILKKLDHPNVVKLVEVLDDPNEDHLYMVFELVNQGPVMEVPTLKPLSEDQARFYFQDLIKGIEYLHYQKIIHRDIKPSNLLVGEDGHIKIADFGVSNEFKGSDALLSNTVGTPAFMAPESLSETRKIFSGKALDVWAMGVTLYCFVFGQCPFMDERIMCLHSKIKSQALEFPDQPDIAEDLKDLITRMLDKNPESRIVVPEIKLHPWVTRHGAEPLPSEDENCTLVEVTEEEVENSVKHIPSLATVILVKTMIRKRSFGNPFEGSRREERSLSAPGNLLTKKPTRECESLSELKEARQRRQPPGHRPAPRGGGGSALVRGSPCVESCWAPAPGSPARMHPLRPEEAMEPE
attribute-measured: IC50

Exam item: // IC50 lookup, key: Cc1cn(CCN2CCN(c3ccccc3-c3cc(C#N)cc(C(=O)NCCCN4CCCC4)c3)CC2)c2ccccc12 [LLY-507]
Marked response: > 20 µM

The values you see were collected from paper PMC4447944.
